Numbers sourced from ChEMBL document CHEMBL1201861.

- System: 8305C
- ASSAY SUMMARY: cells
- Format: functional, cell-based
- EXPERIMENTAL CONTEXT: Homo sapiens
- Description: SANGER: Inhibition of human 8305C cell growth in a cell viability assay.
PROPERTY NAME: IC50 (µM)
Dear colleague, please return just the value in µM, with no unit written.

O=C(CCCCCCC(=O)Nc1ccccc1)NO | 2.87
CC[C@]1(O)C[C@@H]2CN(CCc3c([nH]c4ccccc34)[C@@](C(=O)OC)(c3cc4c(cc3OC)N(C)[C@H]3[C@@](O)(C(=O)OC)[C@H](OC(C)=O)[C@]5(CC)C=CCN6CC[C@]43[C@@H]65)C2)C1 | 0.00367
CCNC(=O)c1noc(-c2cc(C(C)C)c(O)cc2O)c1-c1ccc(CN2CCOCC2)cc1 | 0.0307

Prompt line: Which measured IC50 value corresponds to "CC[C@@]1(O)C(=O)OCc2c1cc1n(c2=O)Cc2cc3ccccc3nc2-1" ?
Response line: 0.094

* * *

- System: C32;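 further: cell viability assay, with IC50 reflecting inhibition of C32 cell growth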
- ASSAY SUMMARY: cells
- Assay type: functional, cell-based
- EXPERIMENTAL CONTEXT: Homo sapiens
- Description: SANGER: Inhibition of human C32 cell growth in a cell viability assay.
pIC50: −log10 of the molar value.
The entries below are paired with their reported pIC50.

Example results:
COc1cc(Nc2c(C#N)cnc3cc(OCCCN4CCN(C)CC4)c(OC)cc23)c(Cl)cc1Cl | < 5.70
C/C(O)=C(\C#N)C(=O)Nc1cc(Br)ccc1Br | < 4.80

Prompt line: Which measured pIC50 value corresponds to "C[C@]12O[C@H](C[C@]1(O)CO)n1c3ccccc3c3c4c(c5c6ccccc6n2c5c31)CNC4=O" ?
Response line: 6.74

Prompt line: Which measured pIC50 value corresponds to "CO[C@@]12[C@H](COC(N)=O)C3=C(C(=O)C(C)=C(N)C3=O)N1C[C@@H]1N[C@@H]12" ?
Response line: 5.82

Prompt line: Which measured pIC50 value corresponds to "C[C@]1(c2nc3c(C(N)=O)cccc3[nH]2)CCCN1" ?
Response line: < 5.30

Prompt line: Which measured pIC50 value corresponds to CC(O)(CS(=O)(=O)c1ccc(F)cc1)C(=O)Nc1ccc(C#N)c(C(F)(F)F)c1 (stereo not drawn) [BICALUTAMIDE] ?
Response line: < 5.99

Prompt line: Which measured pIC50 value corresponds to "Cn1c(=O)n(-c2ccc(C(C)(C)C#N)cc2)c2c3cc(-c4cnc5ccccc5c4)ccc3ncc21" ?
Response line: 7.27

Prompt line: Which measured pIC50 value corresponds to "O=c1[nH]c2ccccc2n1C1CCN(Cc2ccc(-c3nc4cc5[nH]cnc5cc4nc3-c3ccccc3)cc2)CC1" ?
Response line: < 5.59

* * *

- System: Caov-3 cell line;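 further: cell growth inhibition read out by a viability assay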
- ASSAY SUMMARY: cells
- Format: functional, cell-based
- EXPERIMENTAL CONTEXT: Homo sapiens
- Description: SANGER: Inhibition of human Caov-3 cell growth in a cell viability assay.
PROPERTY NAME: IC50

N#C/C(=C1/Nc2ccccc2S1)c1ccnc(NCCc2cccnc2)n1 | > 8000 nM
CCNC(=O)c1noc(-c2cc(C(C)C)c(O)cc2O)c1-c1ccc(CN2CCOCC2)cc1 | > 256 nM

Next:
Prompt line: Kindly state the measured IC50 obtained for "O=c1[nH]c2ccccc2n1C1CCN(Cc2ccc(-c3nc4cc5[nH]cnc5cc4nc3-c3ccccc3)cc2)CC1" with Caov-3 cell line.
Response line: > 2560 nM

* * *

- Test system: LB771-HNC;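 further: growth inhibition of LB771-HNC human cells, read out with a cell viability assay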
- ASSAY SUMMARY: cells
- Format: functional, cell-based
- EXPERIMENTAL CONTEXT: Homo sapiens
- Description: SANGER: Inhibition of human LB771-HNC cell growth in a cell viability assay.
pIC50: −log10 of the molar value.
PROPERTY NAME: pIC50

Example results:
CC[C@]1(O)C[C@@H]2CN(CCc3c([nH]c4ccccc34)[C@@](C(=O)OC)(c3cc4c(cc3OC)N(C)[C@H]3[C@@](O)(C(=O)OC)[C@H](OC(C)=O)[C@]5(CC)C=CCN6CC[C@]43[C@@H]65)C2)C1 | 8.07
CCCS(=O)(=O)Nc1ccc(F)c(C(=O)c2c[nH]c3ncc(Cl)cc23)c1F | < 5.00
Cc1n[nH]c2ccc(-c3cncc(OC[C@@H](N)Cc4c[nH]c5ccccc45)c3)cc12 | 6.65
CCNc1cc(N[C@H]2CC[C@@H](O)CC2)nc(Nc2ccc3c(ccn3Cc3ccccc3)c2)n1 | < 5.29
Cn1cc(/C=C2\C(=O)Nc3cccnc32)c2ccccc21 | < 5.70

Prompt line: Which measured pIC50 value corresponds to "C[C@]12O[C@H](C[C@]1(O)CO)n1c3ccccc3c3c4c(c5c6ccccc6n2c5c31)CNC4=O" ?
Response line: < 5.70
